Source of measurements: patent US20230086603A1

Molecular target: T1, human PD-L1 (hPD-L1) (human, UniProt Q9NZQ7 19-290)
T1 construct: Endogenous hPD-L1 on JIMT1 (JIMT-1) cells; also called programmed death-ligand 1; CD274
T1 sequence (Q9NZQ7 19-290 limits assumed): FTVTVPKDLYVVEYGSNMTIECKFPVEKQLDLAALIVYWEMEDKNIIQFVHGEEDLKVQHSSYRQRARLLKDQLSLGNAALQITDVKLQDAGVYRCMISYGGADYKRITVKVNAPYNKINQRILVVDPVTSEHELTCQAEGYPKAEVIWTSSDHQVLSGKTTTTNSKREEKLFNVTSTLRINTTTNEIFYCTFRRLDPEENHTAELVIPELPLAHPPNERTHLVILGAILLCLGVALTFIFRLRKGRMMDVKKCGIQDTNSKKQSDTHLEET
Experiment: flow cytometry on JIMT-1 cells expressing endogenous human PD-L1; anti-human IgG Fc secondary; geometric MFI
assay-metric: binding result

binder="26 (antibody, V domains shown) VH: QVQLAQSGAEVKKPGASVKVSCKASGYTFTNHYMHWVRQAPGQGLEWMGWMNPNSGNTGYAQKFQGRVTMTRDTSTSTVYMELSSLRSEDTAVYYCARDRWDGDYYSAWGQGTLVTVSS VL: DIQMTQSPSSLSASVGDRVTITCRASQSISNWLAWYQQKPGKAPKLLIYDVSHLESGVPSRFSGSGSGTDFTLTISSLQPEDFATYYCQQSYSTPFTFGPGTKVDIK" experimental_result=binds
binder="12 (antibody, V domains shown) VH: QVQLVQSGAEVKKPGASVKVSCKASGGTFSNYMYHWVRQAPGQGLEWMGWISTYHGSTNYAQKFQGRVTMTRDTSTSTVYMELSSLRSEDTAVYYCARDARGYSGYDLWGQGTLVTVSS VL: DIQMTQSPSSLSASVGDRVTITCRASQIIGNYLAWYQQKPGKAPKLLIYHASILETGVPSRFSGSGSGTDFTLTISSLQPEDFATYYCQQSYSTPTFGGGTKVEIK" experimental_result=binds
